test: cell-permeable autofluorescent compounds in GFP channel, dose response, artefact control, imaging, high-content imaging (AID 2124); details: cells, GFP-channel autofluorescence, high-content imaging; cell count; at 10 µM;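 note: cells exposed to compound for 48 hours before fixing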
Results filed as inconclusive are left out.
readoutName: cell count (cells)
Numbers only, in cells.

S=c1[nH]nc(-c2ccccc2)n1CC1CCCO1 (stereo unspecified)
3250
CCCC(=O)c1c(C)c2ccccc2n1C
3160
COc1cc(OC)cc(C(=O)Nc2cccc(C(C)=O)c2)c1
3260
Cc1cc(C)c(C(=O)O)c(CC(C)(C)C(=O)O)c1
3280
CN(C)S(=O)(=O)Oc1cccc(C(=O)Nc2ccc([N+](=O)[O-])cc2)c1
2460

Below are some compounds; for each one, tell me its cell count.
1. COc1ccc(NC(=O)c2[nH]c(C)c(C(C)=O)c2C)cc1Cl
2. COc1cc(S(=O)(=O)N2CCOCC2)ccc1NC(=O)COC(=O)C12CC3CC(CC(C3)C1)C2
3. Cc1cc(C)c(C#N)c(SCC2COc3ccccc3O2)n1 (stereo unspecified)

Output line:
[3410, 3410, 3670]

The origin of these recorded values is PubChem BioAssay AID2124.
